Test system: Streptococcus sp.
Experiment: in vitro antibacterial evaluation, MIC by broth dilution
Type: cell-based
Settings: broth dilution, inoculum 5×10^5 CFU/mL, 18 hours at 35° C.; strain GC 4564
Readings of MIC Streptococcus agalactiae (GC 4564) for the listed compounds

>  <COMPOUND>
CC(c1ccccc1)C1NC(=O)CNC(=O)C(CO)NC(=O)C(C(O)C2CNC(=N)N2C2OC(CO)C(O)C(O)C2O)NC(=O)C(C(O)C2CNC(=N)N2)NC(=O)C(Cc2ccc(OC3OC(CO)C(OC4OC(COCc5ccc(OCc6ccccc6)cc5)C(O)C(O)C4O)C(O)C3O)cc2)NC1=O (stereo not drawn) [Example 231]

>  <UNIT_ABBREV>
µg/mL

>  <CENSORING_SIGN>
<

>  <MIC Streptococcus agalactiae (GC 4564)>
0.06

$$$$
>  <COMPOUND>
CC(c1ccccc1)C1NC(=O)CNC(=O)C(CO)NC(=O)C(C(O)C2CNC(=N)N2C2OC(CO)C(O)C(O)C2O)NC(=O)C(C(O)C2CNC(=N)N2)NC(=O)C(Cc2ccc(OC3OC(CO)C(OC4OC5COC6(CCCCCCCCCCCC6)OC5C(O)C4O)C(O)C3O)cc2)NC1=O (stereo not drawn) [Example 210]

>  <UNIT_ABBREV>
µg/mL

>  <CENSORING_SIGN>
=

>  <MIC Streptococcus agalactiae (GC 4564)>
0.25

$$$$
>  <COMPOUND>
CCOc1cc(C2OCC3OC(OC4C(CO)OC(Oc5ccc(CC6NC(=O)C(C(C)c7ccccc7)NC(=O)CNC(=O)C(CO)NC(=O)C(C(O)C7CNC(=N)N7C7OC(CO)C(O)C(O)C7O)NC(=O)C(C(O)C7CNC(=N)N7)NC6=O)cc5)C(O)C4O)C(O)C(O)C3O2)ccc1[N+](=O)[O-] (stereo not drawn) [Example 167]

>  <UNIT_ABBREV>
µg/mL

>  <CENSORING_SIGN>
=

>  <MIC Streptococcus agalactiae (GC 4564)>
2

$$$$
>  <COMPOUND>
CC(c1ccccc1)C1NC(=O)CNC(=O)C(CO)NC(=O)C(C(O)C2CNC(=N)N2C2OC(CO)C(O)C(O)C2O)NC(=O)C(C(O)C2CNC(=N)N2)NC(=O)C(Cc2ccc(OC3OC(CO)C(OC4OC(CO)C(OCc5ccc(OCc6ccccc6)cc5)C(O)C4O)C(O)C3O)cc2)NC1=O (stereo not drawn) [Example 231a]

>  <UNIT_ABBREV>
µg/mL

>  <CENSORING_SIGN>
<

>  <MIC Streptococcus agalactiae (GC 4564)>
0.06

$$$$
>  <COMPOUND>
CC(c1ccccc1)C1NC(=O)CNC(=O)C(CO)NC(=O)C(C(O)C2CNC(=N)N2C2OC(CO)C(O)C(O)C2O)NC(=O)C(C(O)C2CNC(=N)N2)NC(=O)C(Cc2ccc(OC3OC(CO)C(OC4OC5COC6(CCSCC6)OC5C(O)C4O)C(O)C3O)cc2)NC1=O (stereo not drawn) [Example 217]

>  <UNIT_ABBREV>
µg/mL

>  <CENSORING_SIGN>
=

>  <MIC Streptococcus agalactiae (GC 4564)>
2

$$$$
>  <COMPOUND>
CC(C)CC(=O)OC1C(O)C(OC2C(CO)OC(Oc3ccc(CC4NC(=O)C(C(C)c5ccccc5)NC(=O)CNC(=O)C(CO)NC(=O)C(C(O)C5CNC(=N)N5C5OC(CO)C(O)C(O)C5O)NC(=O)C(C(O)C5CNC(=N)N5)NC4=O)cc3)C(O)C2O)OC2COC3(OC21)C1CC2CC(C1)CC3C2 (stereo not drawn) [Example 218]

>  <UNIT_ABBREV>
µg/mL

>  <CENSORING_SIGN>
=

>  <MIC Streptococcus agalactiae (GC 4564)>
0.25

$$$$
